tested on: Raw 264.7 macrophages; assay: Cytotoxicity, MTT assay; assay type: cell-based; conditions: Mus musculus, RAW264.7, 48 h, Raw 264.7, MTT, read-out: IC50
Readout Type: IC50 (µg/mL)

{"columns": ["Compound", "Value Prefix", "Endpoint Value"],
 "data": [
  ["CC1(C)S[C@@H]2[C@H](NC(=O)[C@H](N)c3ccc(O)cc3)C(=O)N2[C@H]1C(=O)O [Amoxicillin, amoxicillin]", ">", 1000],
  ["COc1cc(/C=C/C(=O)CC(=O)/C=C/c2ccc(O)c(OC)c2)ccc1O [Curcumin, curcumin]", "=", 94.4],
  ["Cc1nnc(SCC2=C(C(=O)O)N3C(=O)[C@@H](NC(=O)Cn4cnnn4)[C@H]3SC2)s1 [Cefazolin, cefazolin]", ">", 1000],
  ["NCC[C@H](O)C(=O)N[C@@H]1C[C@H](N)[C@@H](O[C@H]2O[C@H](CN)[C@@H](O)[C@H](O)[C@H]2O)[C@H](O)[C@H]1O[C@H]1O[C@H](CO)[C@@H](O)[C@H](N)[C@H]1O [Amikacin, amikacin]", ">", 1000],
  ["COc1cccc2c1C(=O)c1c(O)c3c(c(O)c1C2=O)C[C@@](O)(C(=O)CO)C[C@@H]3O[C@H]1C[C@H](N)[C@H](O)[C@H](C)O1 [Doxorubicin, doxorubicin]", "=", 1.26],
  ["Cc1ccc(C(C)C)c(O)c1 [Thymol, thymol]", "=", 442]
]}
